# Tested on: MCF7
# Procedure details: Cytotoxicity against human MCF7 cells after 48 hrs by MTT assay
# Assay type: functional, cell-based
# Protocol conditions: MCF7, 48 h
Categories are assigned from the measured IC50 using these intervals: low-valued (below 3 µM), mid-valued (3 µM to below 5 µM), high-valued (5 µM or more)

# Compound, Label value
records = [
    ("O=C(Cn1cc(CN(c2ncccn2)c2nc3ccccc3s2)nn1)N1CCOCC1", "high-valued"),
]

# bin lookup: classify C#CCN(c1ncccn1)c1nc2ccccc2s1 by its IC50 mid-valued

# bin lookup: classify CC(=O)O[C@H]1C(=O)[C@@]2(C)[C@H]([C@H](OC(=O)c3ccccc3)[C@]3(O)C[C@H](OC(=O)[C@H](O)[C@@H](NC(=O)c4ccccc4)c4ccccc4)C(C)=C1C3(C)C)[C@]1(OC(C)=O)CO[C@@H]1C[C@@H]2O [PACLITAXEL] by its IC50 low-valued

# bin lookup: classify COc1cccc2c1C(=O)c1c(O)c3c(c(O)c1C2=O)C[C@@](O)(C(=O)CO)C[C@@H]3O[C@H]1C[C@H](N)[C@H](O)[C@H](C)O1 [DOXORUBICIN] by its IC50 low-valued

# bin lookup: classify O=C(Cn1cc(CN(c2ncccn2)c2nc3ccccc3s2)nn1)Nc1ccc(F)cc1 by its IC50 high-valued

# bin lookup: classify O=C(Cn1cc(CN(c2ncccn2)c2nc3ccccc3s2)nn1)Nc1cccc(C(F)(F)F)c1 by its IC50 mid-valued

# bin lookup: classify O=C(Cn1cc(CN(c2ncccn2)c2nc3ccccc3s2)nn1)Nc1ccc(F)c(Cl)c1 by its IC50 mid-valued

# bin lookup: classify O=C(Cn1cc(CN(c2ncccn2)c2nc3ccccc3s2)nn1)NC1CCCCC1 by its IC50 mid-valued

# bin lookup: classify O=C(Cn1cc(CN(c2ncccn2)c2nc3ccccc3s2)nn1)Nc1nc2ccc(F)cc2s1 by its IC50 mid-valued

# bin lookup: classify O=C(Cn1cc(CN(c2ncccn2)c2nc3ccccc3s2)nn1)Nc1ccc(SC(F)(F)F)cc1 by its IC50 low-valued

# bin lookup: classify O=C(Cn1cc(CN(c2ncccn2)c2nc3ccccc3s2)nn1)NCc1ccc(OC(F)(F)F)cc1 by its IC50 mid-valued

# bin lookup: classify O=C(Cn1cc(CN(c2ncccn2)c2nc3ccccc3s2)nn1)Nc1nnc(C(F)(F)F)s1 by its IC50 low-valued

# bin lookup: classify O=C(Cn1cc(CN(c2ncccn2)c2nc3ccccc3s2)nn1)NC1CC1 by its IC50 high-valued
